- SYSTEM_UNDER_TEST: full length NS3/4a (Hepatitis C virus genotype 1b (isolate BK) (HCV), UniProt P26663)
- Sequence (P26663 1027-1657): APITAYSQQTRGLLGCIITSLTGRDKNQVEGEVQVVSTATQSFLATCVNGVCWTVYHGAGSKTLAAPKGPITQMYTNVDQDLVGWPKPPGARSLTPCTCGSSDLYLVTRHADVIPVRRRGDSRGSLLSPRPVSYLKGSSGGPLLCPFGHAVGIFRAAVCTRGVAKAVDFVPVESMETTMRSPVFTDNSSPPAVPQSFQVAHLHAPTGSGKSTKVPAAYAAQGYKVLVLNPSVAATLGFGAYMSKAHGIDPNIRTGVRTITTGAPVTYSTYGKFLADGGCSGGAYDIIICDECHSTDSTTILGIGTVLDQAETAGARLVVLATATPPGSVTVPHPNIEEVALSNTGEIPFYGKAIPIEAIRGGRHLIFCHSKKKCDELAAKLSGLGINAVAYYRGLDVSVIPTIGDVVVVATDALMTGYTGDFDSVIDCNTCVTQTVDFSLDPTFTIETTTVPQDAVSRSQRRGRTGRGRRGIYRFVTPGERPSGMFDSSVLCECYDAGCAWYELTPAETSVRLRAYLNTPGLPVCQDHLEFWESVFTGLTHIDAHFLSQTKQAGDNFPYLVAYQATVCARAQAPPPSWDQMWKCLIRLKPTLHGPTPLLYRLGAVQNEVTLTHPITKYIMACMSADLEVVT
- ASSAY_COMMENT: NS3 Protease Assay (Example A), FRET-based
- Format: biochemical
- ASSAY_CONTEXT: HCV NS3 protease assay, full length NS3/4a; read-out: Assay A IC50 (μM) average
Listing: IC50 of selected molecules
Expressed in µM, but write only the number.

INSERT INTO assay_data (molecule, unit_string, measurement) VALUES
  ('CC[C@@H](N[C@@H](C)CC(N)=O)c1ccc(Cl)c(C(=O)c2cccc(F)c2)c1F [Example 95]', 'µM', 0.085),
  ('NC(=O)CCN[C@@H](c1ccc(Cl)c(C(=O)c2cnc(N)cn2)c1F)C1CC1 [Example 185]', 'µM', 0.6),
  ('CC[C@H](NC(=O)CCN)c1ccc(Cl)c(C(=O)c2ccc(N)nc2)c1F [Example 303]', 'µM', 0.065),
  ('CC[C@@H](N)c1ccc(Cl)c(C(=O)c2ccc(C#N)cc2)c1F [Example 9]', 'µM', 0.076),
  ('CC[C@@H](NC)c1ccc(Cl)c(C(=O)c2ccc(N)nc2)c1F [Example 307]', 'µM', 0.34);

Record [2H]C([2H])([2H])C([2H])([2H])[C@H](N)c1ccc(Cl)c(C(=O)c2ccccc2)c1F [Example 24] : what is its IC50 with full length NS3/4a (Hepatitis C virus genotype 1b (isolate BK) (HCV), UniProt P26663)?
0.075

Try CC[C@H](NC(=O)CCN)c1ccc(Cl)c(C(=O)c2cccnc2)c1F [Example 297] next.
0.15

Try CCOC(=O)c1cnn(-c2ccc(C(=O)c3c(Cl)ccc([C@H](N)CC)c3F)cn2)c1 [Example 41] next.
1.6

Try COc1ccc([C@H](N[C@H](C)CC(N)=O)C2CC2)c(F)c1C(=O)c1cccc(F)c1 [Example 223] next.
3.1

Try CC[C@@H](N[C@@H](C)CC(N)=O)c1ccc(Cl)c(C(=O)c2ccc(-n3cc(CO)cn3)nc2)c1F [Example 159] next.
0.24

Try CC[C@@H](N[C@H](C)CC(N)=O)c1ccc(Cl)c(C(=O)c2cccnc2)c1F [Example 94] next.
1
